- Test system: ATP;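 further: ATP exposure 15 min at 22 °C before imaging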
- PROTOCOL_SUMMARY: switch fluorescence ratio, 500 uM ATP over buffer (Cy3 cluster intensity, sum of 5 cycles each) (fold (ratio)); higher = stronger signal-on switching upon ATP binding; sequences stand for … in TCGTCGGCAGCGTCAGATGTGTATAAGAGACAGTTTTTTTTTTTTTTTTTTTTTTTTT…TC
- PARTICULARS: aptamer strand: ATP DNA aptamer (quencher-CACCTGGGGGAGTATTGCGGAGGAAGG + anchor), 100 nM annealed; ATP concentration: 500 uM
RECORDED_METRIC: switch fluorescence ratio

Reference set (3 entries):
[
  {
    "ENTRY_SEQUENCE": "ATGCTAAGTG",
    "switch fluorescence ratio": 0.964
  },
  {
    "ENTRY_SEQUENCE": "CTGCTCGGTG",
    "switch fluorescence ratio": 0.987
  },
  {
    "ENTRY_SEQUENCE": "CTCGGGATCA",
    "switch fluorescence ratio": 1.01
  }
]

Provide switch fluorescence ratio values for the following items, in order.
1. GTAAGGGGAT
2. ATCAAATATC
3. CGAGACTAGT
4. GCTGGTTTAG
5. TGGAATTAGT
6. GGGTTAGGAT
7. TACCGGGTTT
8. AGGTTGGTGG

1. 0.988
2. 1.04
3. 1.01
4. 1.01
5. 0.986
6. 0.98
7. 0.991
8. 1

Dear colleague, could you send me switch fluorescence ratio for each of the items below? Thanks.
1. AGCGAGCGAA
2. AGGCGACATT
3. GGGTTTCGAA

[1.01, 0.982, 0.97]
